- target_system: Beta-2 adrenergic receptor (Homo sapiens); also: assay procedure not described here
- Sequence (P07550 whole entry): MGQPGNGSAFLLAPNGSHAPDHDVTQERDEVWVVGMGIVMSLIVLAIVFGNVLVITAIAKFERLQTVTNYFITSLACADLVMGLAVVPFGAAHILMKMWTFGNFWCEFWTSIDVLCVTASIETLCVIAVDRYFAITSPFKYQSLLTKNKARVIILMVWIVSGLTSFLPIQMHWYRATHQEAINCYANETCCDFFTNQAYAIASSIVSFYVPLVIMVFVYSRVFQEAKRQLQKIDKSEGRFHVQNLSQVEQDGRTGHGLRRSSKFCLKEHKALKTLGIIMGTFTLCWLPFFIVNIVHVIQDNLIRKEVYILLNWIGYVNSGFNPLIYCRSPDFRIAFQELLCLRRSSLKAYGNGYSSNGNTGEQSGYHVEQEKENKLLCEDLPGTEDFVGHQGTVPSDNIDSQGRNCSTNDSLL
readout_label: AC50

Illustrative cases are given below, each with its answer.
{"molecule": "O=C1CN(/N=C/c2ccc(-c3ccc([N+](=O)[O-])cc3)o2)C(O)=N1", "AC50": "> 10 µM"}
{"molecule": "CNCc1ccc(-c2[nH]c3cc(F)cc4c3c2CCNC4=O)cc1", "AC50": "> 30 µM"}
{"molecule": "CC12CC3CC(C)(C1)CC(N)(C3)C2 [MEMANTINE]", "AC50": "> 10 µM"}
{"molecule": "CC1(C)S[C@@H]2[C@H](NC(=O)[C@H](N)c3ccccc3)C(=O)N2[C@H]1C(=O)OCOC(=O)[C@@H]1N2C(=O)C[C@H]2S(=O)(=O)C1(C)C", "AC50": "> 30 µM"}
{"molecule": "COc1ccccc1Oc1c(NS(=O)(=O)c2ccc(C(C)(C)C)cc2)nc(-c2ncccn2)nc1OCCO", "AC50": "> 10 µM"}
{"molecule": "CCOC(=O)c1cncn1[C@H](C)c1ccccc1 [ETOMIDATE]", "AC50": "> 10 µM"}
{"molecule": "CC(N)C12CC3CC(CC(C3)C1)C2 (centres undefined)", "AC50": "> 10 µM"}
{"molecule": "CCC1(c2ccccc2)CCC(=O)NC1=O (centres undefined) [GLUTETHIMIDE]", "AC50": "> 10 µM"}

As a next step, examine the molecule that follows.
Exercise: Fill blank: measured AC50 of the molecule Cc1cnc(C(=O)NCCc2ccc(S(=O)(=O)NC(=O)NC3CCCCC3)cc2)cn1 [GLIPIZIDE] is ____.
Solution: > 10 µM
